- protocol.notes: physchem
- study.conditions: n-octanol/water, pH 7.4
metric.name: logD

>>> print(df.to_string())
                entry_smiles  readout_number
0  CN(C)C(=S)N/N=C/c1ncccc1N             1.3
